Reported % Activity (maximum response at 1 µM compared to the human NMU-25 response) values are given for each entry in this list.
- study_system: T1, human NMUR1 (human, UniProt Q9HB89 1-426)
- T1 sequence (looked up): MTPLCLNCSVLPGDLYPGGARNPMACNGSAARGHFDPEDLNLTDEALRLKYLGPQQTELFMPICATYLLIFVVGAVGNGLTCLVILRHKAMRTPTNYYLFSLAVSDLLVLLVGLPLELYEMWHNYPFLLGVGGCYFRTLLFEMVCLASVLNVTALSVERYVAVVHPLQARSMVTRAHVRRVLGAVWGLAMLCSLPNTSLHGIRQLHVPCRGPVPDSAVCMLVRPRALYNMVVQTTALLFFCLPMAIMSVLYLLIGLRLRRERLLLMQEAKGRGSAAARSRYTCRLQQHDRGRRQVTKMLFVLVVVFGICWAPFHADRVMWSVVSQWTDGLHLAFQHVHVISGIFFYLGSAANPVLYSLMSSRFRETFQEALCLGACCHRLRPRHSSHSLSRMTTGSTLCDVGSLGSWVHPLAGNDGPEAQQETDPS
- assay_procedure: cell-based or functional assay
Groups on a side chain read outwards from the residue. cholesteroyl = cholesterol group linked to a cysteine residue via the side-chain thiol
# unit: % | format: bare number

Solved entries:
binder	u	observed_result
Ac-C(cholesteroyl)ILQRGSGTAAVDFTKKDHTATWGRPFFLFRPRN-NH2 [NMS2 (Ac-C3ILQRGSGTAAVDFTKKDHTATWGRPFFLFRPRN-CONH2)]	%	11
Ac-C([maleimide-(PEG)2 40 kDa])ILQRGSGTAAVDFTKKDHTATWGRPFFLFRPRN-NH2 [NMS1 (Ac-C2ILQRGSGTAAVDFTKKDHTATWGRPFFLFRPRN-CONH2)]	%	91
Ac-C([maleimide-PEG 40 kDa])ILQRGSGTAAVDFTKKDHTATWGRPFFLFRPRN-NH2 [NMS4 (Ac-C4ILQRGSGTAAVDFTKKDHTATWGRPFFLFRPRN-CONH2)]	%	88

Lookup result for H-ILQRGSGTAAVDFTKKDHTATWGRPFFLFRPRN-NH2 [native human Neuromedin S peptide (NMS)] ; measured % Activity (maximum response at 1 µM compared to the human NMU-25 response): 97
